- targetDesc: H+/K+-ATPase (Sus scrofa, UniProt P19156)
- Construct: reaction buffer solution (60 mmol/l Tris-HCl buffer solution, pH 7.4) containing hog gastric vesicle
- Sequence (P19156 2-1034 limits assumed): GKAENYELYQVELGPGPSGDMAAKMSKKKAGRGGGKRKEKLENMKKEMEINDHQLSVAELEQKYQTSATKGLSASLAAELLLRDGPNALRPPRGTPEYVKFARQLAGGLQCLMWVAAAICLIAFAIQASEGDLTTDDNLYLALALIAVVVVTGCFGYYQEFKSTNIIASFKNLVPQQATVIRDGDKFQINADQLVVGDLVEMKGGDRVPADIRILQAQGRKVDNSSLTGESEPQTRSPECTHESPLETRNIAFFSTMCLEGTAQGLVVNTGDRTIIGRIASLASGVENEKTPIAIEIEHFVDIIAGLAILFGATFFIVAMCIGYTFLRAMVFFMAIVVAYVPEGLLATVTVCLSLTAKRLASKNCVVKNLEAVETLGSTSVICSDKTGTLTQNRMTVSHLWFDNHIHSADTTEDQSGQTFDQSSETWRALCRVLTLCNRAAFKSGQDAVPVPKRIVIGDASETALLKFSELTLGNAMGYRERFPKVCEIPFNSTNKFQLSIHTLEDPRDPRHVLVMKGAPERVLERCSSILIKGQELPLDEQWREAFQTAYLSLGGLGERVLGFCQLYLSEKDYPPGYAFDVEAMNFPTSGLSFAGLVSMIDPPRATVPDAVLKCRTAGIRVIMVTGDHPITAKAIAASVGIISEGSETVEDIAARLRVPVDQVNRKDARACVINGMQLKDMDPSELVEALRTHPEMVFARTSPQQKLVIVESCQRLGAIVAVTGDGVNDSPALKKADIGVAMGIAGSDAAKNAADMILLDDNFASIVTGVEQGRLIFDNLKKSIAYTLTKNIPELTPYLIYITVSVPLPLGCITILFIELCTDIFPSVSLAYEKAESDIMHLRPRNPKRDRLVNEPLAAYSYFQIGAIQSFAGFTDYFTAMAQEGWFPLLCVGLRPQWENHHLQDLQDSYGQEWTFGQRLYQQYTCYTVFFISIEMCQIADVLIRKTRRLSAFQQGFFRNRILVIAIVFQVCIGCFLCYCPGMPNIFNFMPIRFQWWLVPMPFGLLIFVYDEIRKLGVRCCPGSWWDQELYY
- Sequence (P18434 whole entry partner): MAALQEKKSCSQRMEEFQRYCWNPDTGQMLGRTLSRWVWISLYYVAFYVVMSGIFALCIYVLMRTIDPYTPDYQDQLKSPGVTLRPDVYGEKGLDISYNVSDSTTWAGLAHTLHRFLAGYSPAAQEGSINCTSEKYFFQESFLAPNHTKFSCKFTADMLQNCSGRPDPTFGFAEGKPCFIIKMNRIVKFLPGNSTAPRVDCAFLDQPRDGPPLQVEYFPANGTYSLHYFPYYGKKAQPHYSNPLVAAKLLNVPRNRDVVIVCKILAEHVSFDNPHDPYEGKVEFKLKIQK
- assayMethodText: Inhibition of proton pump (H+/K+-ATPase) activity in hog gastric vesicles
- testContext: K+ specific H+/K+-ATPase activity, pH 7.4, 37° C. for 40 minutes, malachite green
In this scheme, each record receives a class according to its IC50; the ranges are low bracket: < 700 nM; middle bracket: ≥ 700 nM and < 3000 nM; high bracket: ≥ 3000 nM

- compound: "CNC1CCc2c1cn(S(=O)(=O)c1cccc(Cl)c1)c2-c1ccc(F)cc1 (centres unmarked) [Example 11]"
  discreteLabel: "low bracket"
- compound: "CNC1CCc2c1cn(S(=O)(=O)c1cc(Cl)c(Cl)cc1Cl)c2-c1ccc(C)cc1F (centres unmarked) [Example 82]"
  discreteLabel: "low bracket"
- compound: "CNC1CCc2c1cn(S(=O)(=O)c1cccc(N(C)C)c1)c2-c1ccccc1F (centres unmarked) [Example 56]"
  discreteLabel: "middle bracket"
- compound: "CCNC1CCCCc2c1cn(S(=O)(=O)c1cccc(Cl)c1)c2-c1ccccc1F (centres unmarked) [Example 147]"
  discreteLabel: "high bracket"
- compound: "Cc1cccc(S(=O)(=O)n2cc3c(c2-c2ccccc2F)CCCC3N(C)C)c1 (centres unmarked) [Example 137]"
  discreteLabel: "high bracket"
- compound: "Cc1oc(=O)oc1CN(C)C1CCc2c1cn(S(=O)(=O)c1cccc(F)c1)c2-c1ccc(F)cc1F (centres unmarked) [Example 117]"
  discreteLabel: "middle bracket"
- compound: "CNC1CCc2c1cn(Cc1cccc(OC)c1)c2-c1ccccc1F (centres unmarked) [Example 111]"
  discreteLabel: "middle bracket"
- compound: "CNC1CCc2c1cn(S(=O)(=O)c1cc(Cl)ccc1Cl)c2-c1ccccc1F (centres unmarked) [Example 70]"
  discreteLabel: "low bracket"
- compound: "CNC1CCc2c1cn(S(=O)(=O)c1cnc3c(c1)c(C)nn3C)c2-c1ccccc1F (centres unmarked) [Example 102]"
  discreteLabel: "high bracket"
- compound: "CNC1CCc2c1cn(S(=O)(=O)c1nccn1C)c2-c1ccccc1F (centres unmarked) [Example 101]"
  discreteLabel: "high bracket"
- compound: "CNC1CCc2c1cn(S(=O)(=O)c1ccccc1)c2-c1cc(Cl)ccc1Cl (centres unmarked) [Example 45]"
  discreteLabel: "low bracket"
- compound: "CNC1CC(C)(C)c2c1cn(S(=O)(=O)c1cccc(Cl)c1)c2-c1ccccc1F (centres unmarked) [Example 106]"
  discreteLabel: "high bracket"
- compound: "CNC1CCc2c1cn(S(=O)(=O)c1cnc3onc(C)c3c1)c2-c1ccccc1F (centres unmarked) [Example 97]"
  discreteLabel: "middle bracket"
- compound: "CNC1CCc2c1cn(S(=O)(=O)c1cccc(Cl)c1)c2-c1ccc(C)o1 (centres unmarked) [Example 32]"
  discreteLabel: "low bracket"
- compound: "CNC1CCc2c1cn(S(=O)(=O)c1cccc(Cl)c1)c2-c1cccc(C(F)(F)F)c1 (centres unmarked) [Example 10]"
  discreteLabel: "middle bracket"
- compound: "CNC1CCc2c1cn(S(=O)(=O)c1cccnc1)c2-c1ccsc1 (centres unmarked) [Example 94]"
  discreteLabel: "low bracket"
- compound: "CNC1CCc2c1cn(S(=O)(=O)c1ccccc1Cl)c2-c1cc(Cl)ccc1Cl (centres unmarked) [Example 50]"
  discreteLabel: "middle bracket"
- compound: "CNC1CCc2c1cn(S(=O)(=O)c1cccc(Cl)c1)c2-c1cccnc1C(F)(F)F (centres unmarked) [Example 38]"
  discreteLabel: "high bracket"
- compound: "CNC1CCc2c1cn(S(=O)(=O)c1cccc(Cl)c1)c2-c1cccc(C)c1 (centres unmarked) [Example 8]"
  discreteLabel: "middle bracket"
- compound: "CNC1CCc2c1cn(S(=O)(=O)c1cccc(Cl)c1)c2-c1ccsc1 (centres unmarked) [Example 33]"
  discreteLabel: "low bracket"
